# EXPERIMENT NOTES: rescue of polyQ-huntingtin neuronal dysfunction in worms, whole organism, C. elegans mechanosensory neurons, N-terminal huntingtin (AID 1599)
# MEASUREMENT SETUP: touch response, stronger effect = higher value
Measured potencies and affinities stand elsewhere.
Exercise: state measured rescue above control for each of the molecules provided.

Problem: Need rescue above control, item CC(C)(C)NCC(O)c1ccccc1Cl (stereo unspecified)
Solution: -6.12

Problem: Lookup O=c1[nH]oc2c1CCNC2
Solution: -2.56

Problem: Lookup CN1C2CC(OC(=O)[C@H](CO)c3ccccc3)C[C@H]1CC2O (stereo partly specified)
Solution: -1.97

Problem: Lookup COc1cc([C@@H]2c3cc4c(cc3[C@H](O)[C@H]3COC(=O)[C@H]23)OCO4)cc(OC)c1OC
Solution: -13.8

Problem: Lookup c1ccc(N=Nc2ccccc2)cc1
Solution: 6.73

Problem: Lookup CC[N+]1(C)CCCC(OC(=O)C(O)(c2ccccc2)c2ccccc2)C1 (stereo unspecified)
Solution: -4.25

====

Exercise: state measured remaining activity for each of the molecules provided.
# Tested on: Aerobactin synthetase IucA (Klebsiella pneumoniae, hypervirulent)
# EXPERIMENT NOTES: IucA enzyme inhibition, biochemical, LOPAC library, absorbance readout (AID 1346212);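 note: 100% = no compound wells and 0% = no enzyme wells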
# MEASUREMENT SETUP: IucA enzyme assay, absorbance (OD) readout; stronger effect = lower value; concentration not given here
Calls of active or inactive are those of the source. The rule behind the calls is not given here.

Problem: Notebook entry, Aerobactin synthetase IucA (Klebsiella pneumoniae, hypervirulent) assay: remaining activity of CC(=O)[C@@]1(O)CC[C@H]2[C@@H]3CCC4=CC(=O)CC[C@]4(C)[C@H]3CC[C@@]21C = ?
Solution: 106% (inactive)

Problem: Lookup Oc1cc(O)cc(/C=C/c2ccc(O)c(O)c2)c1
Solution: 125% (inactive)

Problem: Lookup CN(C)CC/C=C1/c2ccccc2Sc2ccc(Cl)cc21
Solution: 115% (inactive)

Problem: Lookup CCCNC[C@H](O)COc1ccccc1C(=O)CCc1ccccc1
Solution: 91.3% (inactive)

Problem: Lookup Cc1cccc(C2CN(C)CCc3c2cc(O)c(O)c3Cl)c1 (configuration not stated)
Solution: 105% (inactive)

Problem: Lookup CC[C@H](C)C(=O)O[C@H]1CCC=C2C=C[C@H](C)[C@H](CC[C@@H]3C[C@@H](O)CC(=O)O3)[C@H]21
Solution: 118% (inactive)

Problem: Lookup CCn1cnc2c(Nc3cccc(Cl)c3)nc(N[C@@H]3CCCC[C@@H]3N)nc21
Solution: 98.9% (inactive)

Problem: Lookup COc1ccc(C(=O)NCc2cccnc2)cc1C(=O)NCc1cccnc1
Solution: 103% (inactive)

Problem: Lookup COc1cc(CC(=O)O)ccc1O
Solution: 83.1% (inactive)

Problem: Lookup Cc1nc2sccn2c(=O)c1CCN1CCC(=C(c2ccc(F)cc2)c2ccc(F)cc2)CC1
Solution: 99.1% (inactive)

Problem: Lookup CCCCCCCCCCCCCCC[C@H](O)[C@H](N)CO
Solution: 83.3% (inactive)

Problem: Lookup O=C1NC(=O)c2cc(Nc3ccccc3)c(Nc3ccccc3)cc21
Solution: 113% (inactive)

Problem: Lookup CC(C)NC(C)Cc1ccc(I)cc1 (configuration not stated)
Solution: 108% (inactive)

Problem: Lookup CC(COc1ccccc1)N(CCCl)Cc1ccccc1 (configuration not stated)
Solution: 109% (inactive)

Problem: Lookup O=C(Nc1ccc([N+](=O)[O-])cc1Cl)c1cc(Cl)ccc1O
Solution: 113% (inactive)

Problem: Lookup CNC(=O)OCC[N+](C)(C)C
Solution: 109% (inactive)

Problem: Lookup CCOC(=O)C1=C[C@]2(CC)CCCN3CCc4c(n1c1ccccc41)[C@@H]32
Solution: 100% (inactive)

Problem: Lookup CCC(C)N(C)C(=O)c1cc2ccccc2c(-c2ccccc2Cl)n1 (configuration not stated)
Solution: 116% (inactive)

Problem: Lookup Nc1nc(OCc2ccccc2)c2[nH]cnc2n1
Solution: 103% (inactive)

Problem: Lookup COC(=O)c1cc2c(cn1)[nH]c1ccccc12
Solution: 104% (inactive)

Problem: Lookup O=C(O)C1C2CCC(O2)C1C(=O)O (configuration not stated)
Solution: 81.7% (inactive)

Problem: Lookup CC1=C(/C=C/C(C)=C/C=C/C(C)=C\C(=O)O)C(C)(C)CCC1
Solution: 85.8% (inactive)

Problem: Lookup CN1C2CCC1CC(OC(=O)c1c[nH]c3ccccc13)C2 (configuration not stated)
Solution: 97.7% (inactive)

Problem: Lookup CN(CC[C@@H](Oc1ccc(C(F)(F)F)cc1)c1ccccc1)CC(=O)O
Solution: 118% (inactive)

Problem: Lookup CNCCC(Oc1ccccc1OC)c1ccccc1 (configuration not stated)
Solution: 104% (inactive)

Problem: Lookup NCCCCCC(=O)O
Solution: 113% (inactive)

Problem: Lookup CC(CCc1ccccc1)NC(C)C(O)c1ccc(O)cc1 (configuration not stated)
Solution: 104% (inactive)

Problem: Lookup C[C@H](Cc1ccc2c(c1)OC(C(=O)O)(C(=O)O)O2)NC[C@H](O)c1cccc(Cl)c1
Solution: 117% (inactive)

Problem: Lookup Nc1nc2c(ncn2COC(CO)CO)c(=O)[nH]1
Solution: 111% (inactive)

Problem: Lookup c1cnc(N2CCN(Cc3ccc4c(c3)OCO4)CC2)nc1
Solution: 102% (inactive)

Problem: Lookup CC1=C(/C=C/C(C)=C/C=C/C(C)=C/C(=O)Nc2ccc(O)cc2)C(C)(C)CCC1
Solution: 97.1% (inactive)

Problem: Lookup C=C[C@@]1(C)CC(=O)[C@]2(O)[C@@]3(C)[C@@H](O)CCC(C)(C)[C@@H]3[C@H](O)[C@H](OC(C)=O)[C@@]2(C)O1
Solution: 107% (inactive)

Problem: Lookup NC(=O)c1ccc(OCC(O)CN2CC=C(c3ccc(F)cc3)CC2)cc1 (configuration not stated)
Solution: 103% (inactive)

Problem: Lookup N#C/C(=C\c1ccc(O)c(O)c1)C(=O)NCCCNC(=O)/C(C#N)=C/c1ccc(O)c(O)c1
Solution: 98.2% (inactive)

Problem: Lookup C#CC(N)CCC(=O)O (configuration not stated)
Solution: 122% (inactive)

Problem: Lookup O=C(O)c1cccnc1Nc1cccc(C(F)(F)F)c1
Solution: 115% (inactive)

Problem: Lookup Nc1ccncc1
Solution: 103% (inactive)

Problem: Lookup NC(=O)CI
Solution: 124% (inactive)

Problem: Lookup NC/C=C/C(=O)O
Solution: 101% (inactive)

Problem: Lookup O=C(O)CCCCCCCC(=O)O
Solution: 93.4% (inactive)

Problem: Lookup Oc1cc(O)c2c(c1)O[C@H](c1ccc(O)c(O)c1)[C@@H](O)C2
Solution: 106% (inactive)

Problem: Lookup CCCC1O[C@@H]2C[C@H]3[C@@H]4CCC5=CC(=O)C=C[C@]5(C)[C@H]4[C@@H](O)C[C@]3(C)[C@]2(C(=O)CO)O1 (some centres not stated)
Solution: 115% (inactive)

Problem: Lookup CC(=O)N1CCN(c2ccc(OC[C@H]3CO[C@](Cn4ccnc4)(c4ccc(Cl)cc4Cl)O3)cc2)CC1
Solution: 121% (inactive)

Problem: Lookup CCN(CC)CCNC(=O)c1ccc(NC(C)=O)cc1
Solution: 109% (inactive)

Problem: Lookup CN1CCN(c2nc3cc(C(F)(F)F)ccc3n3cccc23)CC1
Solution: 94.3% (inactive)

Problem: Lookup O=C1c2ccccc2-c2n[nH]c3cccc1c23
Solution: 88.6% (inactive)

Problem: Lookup c1ccc2nc(C3=NCCN3)ccc2c1
Solution: 121% (inactive)

====

# Tested on: Aerobactin synthetase IucA (Klebsiella pneumoniae hvKP1)
# EXPERIMENT NOTES: Biochemical IucA enzyme inhibition primary screen of the Spectrum library (AID 1346200);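 note: 100% = wells without compound and 0% = wells lacking enzyme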
# MEASUREMENT SETUP: malachite green pyrophosphate, A620, at 8 µM, stronger effect = lower value
ENDPOINT NAME: activity remaining (%)
Numbers only here, please. The scale is %.

Problem: Need activity remaining, item CC(=O)C1CCC2C3CCC4C[C@H](O)CCC4(C)C3C[C@H](O)C12C (stereo partly specified)
Solution: 112

Problem: Lookup COC1=C(OC)C(=O)C(C/C=C(\C)CC/C=C(\C)CC/C=C(\C)CC/C=C(/C)CC/C=C(\C)CC/C=C(\C)CC/C=C(\C)CC/C=C(\C)CC/C=C(\C)CCC=C(C)C)=C(C)C1=O
Solution: 93

Problem: Lookup O=C1OC(c2ccc(O)cc2)(c2ccc(O)cc2)c2ccccc21
Solution: 115

Problem: Lookup CC1C[C@H]2CC(=O)[C@H]3CCCN4CCC[C@H]2[C@]34C1 (stereo partly specified)
Solution: 91.3

Problem: Lookup O=C(O)c1cc(O)c2c(c1)C(=O)c1cc(O)cc(O)c1C2=O
Solution: 99.8

Problem: Lookup NC(=O)N/N=C/c1ccc([N+](=O)[O-])o1
Solution: 94.6

Problem: Lookup COc1cc2nc(N3CCN(C(=O)c4ccco4)CC3)nc(N)c2cc1OC
Solution: 127

Problem: Lookup COc1cc(O)cc(OC)c1OC
Solution: 104

Problem: Lookup CCn1cc(C(=O)O)c(=O)c2cc(F)c(N3CCN(C)CC3)cc21
Solution: 109

Problem: Lookup NCCc1c[nH]c2ccccc12
Solution: 113

Problem: Lookup COc1cc2c(cc1-c1coc3c4c(c(OC)cc3c1=O)OC(C)(C)C=C4)OCO2
Solution: 110

Problem: Lookup CN1C2C[C@H](OC(=O)[C@H](CO)c3ccccc3)C[C@H]1[C@@H](O)C2
Solution: 109

Problem: Lookup CC[C@]1(O)CC2CN(CCc3c([nH]c4ccccc34)[C@@](C(=O)OC)(c3cc4c(cc3OC)N(C=O)[C@H]3[C@@](O)(C(=O)OC)[C@H](OC(C)=O)[C@]5(CC)C=CCN6CC[C@]43[C@@H]65)C2)C1 (stereo partly specified)
Solution: 82.4

Problem: Lookup C=CCSCC1Nc2cc(Cl)c(S(N)(=O)=O)cc2S(=O)(=O)N1 (stereo unspecified)
Solution: 91.6

Problem: Lookup Cc1c(Nc2ncccc2C(=O)O)cccc1C(F)(F)F
Solution: 117

Problem: Lookup O=C(O)C1=C[C@@H](O)[C@@H](O)[C@H](O)C1
Solution: 86.3

Problem: Lookup COC(=O)N/N=C/c1c[n+]([O-])c2ccccc2[n+]1[O-]
Solution: 109

Problem: Lookup Cc1cc(/C=C/c2ccc3cc(N(C)C)ccc3[n+]2C)c(C)n1-c1ccccc1
Solution: 72.1

Problem: Lookup CC(=O)Oc1ccc2c(c1OC(C)=O)OCC1(O)Cc3c(cc(OC(C)=O)c(OC(C)=O)c3OC(C)=O)C21 (stereo unspecified)
Solution: 111

Problem: Lookup COc1c2c(cc3c1OCO3)CC[N+](C)=C2
Solution: 99.6

Problem: Lookup CO/N=C1\CN(c2nc3c(cc2F)c(=O)c(C(=O)O)cn3C2CC2)CC1CN (stereo unspecified)
Solution: 106
